Assay system: α9/α10 heteromeric acetylcholine receptors (Rattus norvegicus, UniProt P43144+Q9JLB5)
Construct: The coding region of the rat α10 gene
Sequence (P43144 26-479): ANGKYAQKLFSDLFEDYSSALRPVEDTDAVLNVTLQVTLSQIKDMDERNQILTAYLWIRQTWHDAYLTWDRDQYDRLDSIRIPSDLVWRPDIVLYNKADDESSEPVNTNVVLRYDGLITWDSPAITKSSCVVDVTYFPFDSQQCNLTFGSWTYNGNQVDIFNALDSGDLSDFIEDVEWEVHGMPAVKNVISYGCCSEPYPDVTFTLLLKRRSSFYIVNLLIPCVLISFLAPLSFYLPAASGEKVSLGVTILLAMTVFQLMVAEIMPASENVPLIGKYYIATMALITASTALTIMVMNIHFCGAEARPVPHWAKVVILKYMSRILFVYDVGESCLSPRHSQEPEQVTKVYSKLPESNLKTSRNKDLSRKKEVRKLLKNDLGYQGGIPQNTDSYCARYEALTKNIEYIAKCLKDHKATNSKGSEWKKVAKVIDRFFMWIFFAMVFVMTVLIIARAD
Sequence (Q9JLB5 25-447): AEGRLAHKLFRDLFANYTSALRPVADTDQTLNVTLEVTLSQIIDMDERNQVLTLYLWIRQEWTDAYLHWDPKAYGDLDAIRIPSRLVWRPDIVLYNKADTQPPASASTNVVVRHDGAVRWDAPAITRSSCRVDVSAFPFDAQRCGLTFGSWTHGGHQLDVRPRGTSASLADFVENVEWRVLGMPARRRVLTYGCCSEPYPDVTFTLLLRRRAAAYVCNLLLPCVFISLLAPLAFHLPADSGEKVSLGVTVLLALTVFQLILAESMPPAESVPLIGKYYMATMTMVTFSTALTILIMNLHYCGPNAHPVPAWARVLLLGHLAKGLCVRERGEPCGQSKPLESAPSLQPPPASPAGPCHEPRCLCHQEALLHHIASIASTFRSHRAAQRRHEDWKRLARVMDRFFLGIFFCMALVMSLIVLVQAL
Procedure summary: Experiment 6: voltage-clamp on alpha9/alpha10 acetylcholine receptors in Xenopus laevis oocytes
Assay context: cells held at −30 mV, 100 μM acetylcholine; read-out: halfmaximal inhibition concentration
Measure: IC50

Memo: CC12CC3CC(C)(C1)CC(N)(C3)C2 [memantine, 3.5-dimethyl-1-adamantanamine] , reported IC50: ~1 µM

----------
Assay system: α9/α10 nAChR (Rattus norvegicus, UniProt P43144+Q9JLB5)
Construct: The coding region of the rat α10 gene; expressed in transfected cells; host or cells: Xenopus laevis oocytes (mRNA injection)
Sequence (P43144 26-479): as the sequence (P43144 26-479) above
Sequence (Q9JLB5 25-447): as the sequence (Q9JLB5 25-447) above
Procedure summary: Two-electrode voltage-clamp on α9/α10 nAChR expressed in Xenopus oocytes
Format: cell-based
Assay context: MgNFR (nominally Ca2+-free), 100 μM ACh, peak currents; read-out: IC50 of block of α9/α10 nAChR current
Description: In vitro mRNA synthesis and oocyte injections were performed as previously described (Fakler et al., 1995, Cell 80, 149-154; Oliver et al., 2000, see above). […] In (A) currents evoked by activation of α9/α10 nAChRs are dependent on external Ca^2+. […] (B) Currents from homomeric α9 (upper trace) and heteromeric α9/α10 nAChRs (lower trace), recorded by application of 100 μM ACh in nominally Ca^2+-free external solution (MgNFR; −80 mV). […]
Measure: IC50

Memo: CC12CC3CC(C)(C1)CC(N)(C3)C2 [memantine, 3.5-dimethyl-1-adamantanamine] , reported IC50: 1.6 µM

----------
Assay system: nAChR currents in OHCs (Rattus norvegicus, UniProt P43144+Q9JLB5)
Construct: Currents through nAChRs were recorded from an OHC
Sequence (P43144 26-479): as the sequence (P43144 26-479) above
Sequence (Q9JLB5 25-447): as the sequence (Q9JLB5 25-447) above
Procedure summary: Steady-state block of nAChR currents in OHCs (BAPTA intracellular solution)
Assay context: −94 mV, 200 μM ACh, 10 mM BAPTA, steady-state
Measure: IC50 (µM)
Your answer should be a plain number; it is taken to be in µM.

Memo: CC12CC3CC(C)(C1)CC(N)(C3)C2 [memantine, 3.5-dimethyl-1-adamantanamine] , reported IC50: 1.1

----------
Assay system: α9/α10 nAChR (Rattus norvegicus, UniProt P43144+Q9JLB5)
Construct: The coding region of the rat α10 gene; expressed in transfected cells; host or cells: Xenopus laevis oocytes (mRNA injection)
Procedure summary: Two-electrode voltage-clamp on α9/α10 nAChR expressed in Xenopus oocytes
Format: cell-based
Assay context: summary of FIGS. 3E, 5B; read-out: affinity for memantine of α9/α10 receptors
Procedure: In vitro mRNA synthesis and oocyte injections were performed as previously described (Fakler et al., 1995, Cell 80, 149-154; Oliver et al., 2000, see above). […] In (A) currents evoked by activation of α9/α10 nAChRs are dependent on external Ca^2+. […] (B) Currents from homomeric α9 (upper trace) and heteromeric α9/α10 nAChRs (lower trace), recorded by application of 100 μM ACh in nominally Ca^2+-free external solution (MgNFR; −80 mV). […]
Measure: IC50

Memo: CC12CC3CC(C)(C1)CC(N)(C3)C2 [memantine, 3.5-dimethyl-1-adamantanamine] , reported IC50: ~1000 nM

Source listed as patent US20040048892A1.
